System: NCI-H1417 complex spheroids, growth % test/control
Assay: Anticancer human tumor NCI-H1417 cell line growth inhibition [Asc];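 further: spheroids exposed to compounds for 7 days; 100% = DMSO vehicle control wells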
Settings: second compound 0.316 µM; first compound 0.3 µM; active compounds read low
Test readout: viability, T/C (%)
One number for each entry, in %.

compound="NC(=O)C(=Cn1cnc(-c2cc(C(F)(F)F)cc(C(F)(F)F)c2)n1)c1cncnc1 + CNC(C)C(=O)NC1CN(S(=O)(=O)c2cccc(S(=O)(=O)N3CCC4CCC(C(=O)NC(c5ccccc5)c5ccccc5)N4C(=O)C(NC(=O)C(C)NC)C3)c2)CCC2CCC(C(=O)NC(c3ccccc3)c3ccccc3)N2C1=O" test_readout="viability, T/C" observed_value=45.1

// each listed compound needs a value for viability, T/C
1. Cc1nc(N2CCC3(CC2)COC(C)C3N)c(CO)nc1Sc1ccnc(N)c1Cl (stereo not drawn) + CNC(C)C(=O)NC1CN(S(=O)(=O)c2cccc(S(=O)(=O)N3CCC4CCC(C(=O)NC(c5ccccc5)c5ccccc5)N4C(=O)C(NC(=O)C(C)NC)C3)c2)CCC2CCC(C(=O)NC(c3ccccc3)c3ccccc3)N2C1=O
2. CCN1C(C(=O)NC23CCC(C(=O)O)(CC2)CC3)C(c2cccc(Cl)c2F)C2(C(=O)Nc3cc(Cl)ccc32)C12CCCCC2 (stereo not drawn) + CNC(C)C(=O)NC1CN(S(=O)(=O)c2cccc(S(=O)(=O)N3CCC4CCC(C(=O)NC(c5ccccc5)c5ccccc5)N4C(=O)C(NC(=O)C(C)NC)C3)c2)CCC2CCC(C(=O)NC(c3ccccc3)c3ccccc3)N2C1=O

1: 88.8; 2: 102

====

Test system: NCI-H1417 complex spheroids, growth % test/control
Test: Anticancer human tumor NCI-H1417 cell line growth inhibition [Asc];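 further: spheroids exposed to compounds for 7 days; 100% = DMSO vehicle control wells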
Details: second compound 1 µM; first compound 0.00949 µM; active compounds read low
For each entry below, report its viability, T/C value.
Answers are plain numbers, in %.

Reference set, count: 2
compound="Cc1nc(N2CCC3(CC2)COC(C)C3N)c(CO)nc1Sc1ccnc(N)c1Cl (stereo not drawn) + CNC(C)C(=O)NC1CN(S(=O)(=O)c2cccc(S(=O)(=O)N3CCC4CCC(C(=O)NC(c5ccccc5)c5ccccc5)N4C(=O)C(NC(=O)C(C)NC)C3)c2)CCC2CCC(C(=O)NC(c3ccccc3)c3ccccc3)N2C1=O" observed_value=78.1
compound="CCN1C(C(=O)NC23CCC(C(=O)O)(CC2)CC3)C(c2cccc(Cl)c2F)C2(C(=O)Nc3cc(Cl)ccc32)C12CCCCC2 (stereo not drawn) + CNC(C)C(=O)NC1CN(S(=O)(=O)c2cccc(S(=O)(=O)N3CCC4CCC(C(=O)NC(c5ccccc5)c5ccccc5)N4C(=O)C(NC(=O)C(C)NC)C3)c2)CCC2CCC(C(=O)NC(c3ccccc3)c3ccccc3)N2C1=O" observed_value=110

We now examine a further compound.
Can you look up the measured viability, T/C of Cc1nc(N2CCC3(CC2)COC(C)C3N)c(CO)nc1Sc1ccnc(N)c1Cl (stereo not drawn) + Cc1c(S(C)(=O)=O)c(-c2cc(F)cc(N3CCN(c4ccc(NS(=O)(=O)c5ccc(NC(CCN6CCC(C(=O)OCCCP(=O)(O)O)CC6)CSc6ccccc6)c(S(=O)(=O)C(F)(F)F)c5)cc4)CC3)c2)c(-c2ccc(Cl)cc2)n1C(C)C for me?
12.4

====

Test system: NCI-H1417 complex spheroids, growth % test/control
Assay: Anticancer human tumor NCI-H1417 cell line growth inhibition [Asc]; active means viability on the fitted dose curve at most 10% of control; inactive means the rest;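 further: spheroids exposed to compounds for 7 days; 100% = DMSO vehicle control wells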
Details: second compound 0.316 µM; first compound 0.3 µM
Field 'call' accepts active, inactive

molecule="Cc1nc(N2CCC3(CC2)COC(C)C3N)c(CO)nc1Sc1ccnc(N)c1Cl (stereo not drawn) + Cc1c(S(C)(=O)=O)c(-c2cc(F)cc(N3CCN(c4ccc(NS(=O)(=O)c5ccc(NC(CCN6CCC(C(=O)OCCCP(=O)(O)O)CC6)CSc6ccccc6)c(S(=O)(=O)C(F)(F)F)c5)cc4)CC3)c2)c(-c2ccc(Cl)cc2)n1C(C)C" category_label=inactive
molecule="CCN1C(C(=O)NC23CCC(C(=O)O)(CC2)CC3)C(c2cccc(Cl)c2F)C2(C(=O)Nc3cc(Cl)ccc32)C12CCCCC2 (stereo not drawn) + Cc1c(S(C)(=O)=O)c(-c2cc(F)cc(N3CCN(c4ccc(NS(=O)(=O)c5ccc(NC(CCN6CCC(C(=O)OCCCP(=O)(O)O)CC6)CSc6ccccc6)c(S(=O)(=O)C(F)(F)F)c5)cc4)CC3)c2)c(-c2ccc(Cl)cc2)n1C(C)C" category_label=inactive

API: the following record is the query input.
Identify the outcome logged in this assay for the molecule shown: NC(=O)C(=Cn1cnc(-c2cc(C(F)(F)F)cc(C(F)(F)F)c2)n1)c1cncnc1 + Cc1c(S(C)(=O)=O)c(-c2cc(F)cc(N3CCN(c4ccc(NS(=O)(=O)c5ccc(NC(CCN6CCC(C(=O)OCCCP(=O)(O)O)CC6)CSc6ccccc6)c(S(=O)(=O)C(F)(F)F)c5)cc4)CC3)c2)c(-c2ccc(Cl)cc2)n1C(C)C
active

====

Tested on: NCI-H1417 complex spheroids, growth % test/control
Test: Anticancer human tumor NCI-H1417 cell line growth inhibition [Asc];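 further: spheroids exposed to compounds for 7 days; 100% = DMSO vehicle control wells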
Conditions: second compound 1 µM; first compound 0.3 µM; active compounds read low
Test readout: viability, T/C (%)
Give bare numbers, in %.

Reference set, count: 5
compound="NC(=O)C(=Cn1cnc(-c2cc(C(F)(F)F)cc(C(F)(F)F)c2)n1)c1cncnc1 + CNC(C)C(=O)NC1CN(S(=O)(=O)c2cccc(S(=O)(=O)N3CCC4CCC(C(=O)NC(c5ccccc5)c5ccccc5)N4C(=O)C(NC(=O)C(C)NC)C3)c2)CCC2CCC(C(=O)NC(c3ccccc3)c3ccccc3)N2C1=O" test_readout="viability, T/C" units_of_measure=% observed_value=42.6
compound="CCN1C(C(=O)NC23CCC(C(=O)O)(CC2)CC3)C(c2cccc(Cl)c2F)C2(C(=O)Nc3cc(Cl)ccc32)C12CCCCC2 (stereo unspecified) + CNC(C)C(=O)NC1CN(S(=O)(=O)c2cccc(S(=O)(=O)N3CCC4CCC(C(=O)NC(c5ccccc5)c5ccccc5)N4C(=O)C(NC(=O)C(C)NC)C3)c2)CCC2CCC(C(=O)NC(c3ccccc3)c3ccccc3)N2C1=O" test_readout="viability, T/C" units_of_measure=% observed_value=108
compound="CCN1C(C(=O)NC23CCC(C(=O)O)(CC2)CC3)C(c2cccc(Cl)c2F)C2(C(=O)Nc3cc(Cl)ccc32)C12CCCCC2 (stereo unspecified) + Cc1c(S(C)(=O)=O)c(-c2cc(F)cc(N3CCN(c4ccc(NS(=O)(=O)c5ccc(NC(CCN6CCC(C(=O)OCCCP(=O)(O)O)CC6)CSc6ccccc6)c(S(=O)(=O)C(F)(F)F)c5)cc4)CC3)c2)c(-c2ccc(Cl)cc2)n1C(C)C" test_readout="viability, T/C" units_of_measure=% observed_value=2.15
compound="NC(=O)C(=Cn1cnc(-c2cc(C(F)(F)F)cc(C(F)(F)F)c2)n1)c1cncnc1 + Cc1c(S(C)(=O)=O)c(-c2cc(F)cc(N3CCN(c4ccc(NS(=O)(=O)c5ccc(NC(CCN6CCC(C(=O)OCCCP(=O)(O)O)CC6)CSc6ccccc6)c(S(=O)(=O)C(F)(F)F)c5)cc4)CC3)c2)c(-c2ccc(Cl)cc2)n1C(C)C" test_readout="viability, T/C" units_of_measure=% observed_value=0.83
compound="Cc1nc(N2CCC3(CC2)COC(C)C3N)c(CO)nc1Sc1ccnc(N)c1Cl (stereo unspecified) + Cc1c(S(C)(=O)=O)c(-c2cc(F)cc(N3CCN(c4ccc(NS(=O)(=O)c5ccc(NC(CCN6CCC(C(=O)OCCCP(=O)(O)O)CC6)CSc6ccccc6)c(S(=O)(=O)C(F)(F)F)c5)cc4)CC3)c2)c(-c2ccc(Cl)cc2)n1C(C)C" test_readout="viability, T/C" units_of_measure=% observed_value=3.75

We now examine a further compound.
Query viability, T/C on NCI-H1417 complex spheroids, growth % test/control for Cc1nc(N2CCC3(CC2)COC(C)C3N)c(CO)nc1Sc1ccnc(N)c1Cl (stereo unspecified) + CNC(C)C(=O)NC1CN(S(=O)(=O)c2cccc(S(=O)(=O)N3CCC4CCC(C(=O)NC(c5ccccc5)c5ccccc5)N4C(=O)C(NC(=O)C(C)NC)C3)c2)CCC2CCC(C(=O)NC(c3ccccc3)c3ccccc3)N2C1=O
89.8

====

For each entry below, report its viability, T/C value.
System: NCI-H1417 complex spheroids, growth % test/control
Assay: Anticancer human tumor NCI-H1417 cell line growth inhibition [Asc];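 further: spheroids exposed to compounds for 7 days; 100% = DMSO vehicle control wells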
Conditions: second compound 0.0316 µM; first compound 0.01 µM; active compounds read low
Numbers only, in %.

Reference set, count: 3
molecule="Cn1ncnc1[C@H]1c2n[nH]c(=O)c3cc(F)cc(c23)N[C@@H]1c1ccc(F)cc1 + CNC(C)C(=O)NC1CN(S(=O)(=O)c2cccc(S(=O)(=O)N3CCC4CCC(C(=O)NC(c5ccccc5)c5ccccc5)N4C(=O)C(NC(=O)C(C)NC)C3)c2)CCC2CCC(C(=O)NC(c3ccccc3)c3ccccc3)N2C1=O" test_readout="viability, T/C" observed_value=87.4
molecule="CCN1CCN(Cc2ccc(Nc3ncc(F)c(-c4cc(F)c5nc(C)n(C(C)C)c5c4)n3)nc2)CC1 + CNC(C)C(=O)NC1CN(S(=O)(=O)c2cccc(S(=O)(=O)N3CCC4CCC(C(=O)NC(c5ccccc5)c5ccccc5)N4C(=O)C(NC(=O)C(C)NC)C3)c2)CCC2CCC(C(=O)NC(c3ccccc3)c3ccccc3)N2C1=O" test_readout="viability, T/C" observed_value=103
molecule="COc1c(OCCCN2CCOCC2)ccc2c3n(c(=NC(=O)c4cnc(N)nc4)nc12)CCN3 + CNC(C)C(=O)NC1CN(S(=O)(=O)c2cccc(S(=O)(=O)N3CCC4CCC(C(=O)NC(c5ccccc5)c5ccccc5)N4C(=O)C(NC(=O)C(C)NC)C3)c2)CCC2CCC(C(=O)NC(c3ccccc3)c3ccccc3)N2C1=O" test_readout="viability, T/C" observed_value=93.8

// each listed molecule needs a value for viability, T/C
1. NC1CCC(NC2CC2c2ccccc2)CC1 (stereo not given) + CNC(C)C(=O)NC1CN(S(=O)(=O)c2cccc(S(=O)(=O)N3CCC4CCC(C(=O)NC(c5ccccc5)c5ccccc5)N4C(=O)C(NC(=O)C(C)NC)C3)c2)CCC2CCC(C(=O)NC(c3ccccc3)c3ccccc3)N2C1=O
2. O=C(c1ccc(F)c(F)c1Nc1ccc(I)cc1F)N1CC(O)([C@@H]2CCCCN2)C1 + CNC(C)C(=O)NC1CN(S(=O)(=O)c2cccc(S(=O)(=O)N3CCC4CCC(C(=O)NC(c5ccccc5)c5ccccc5)N4C(=O)C(NC(=O)C(C)NC)C3)c2)CCC2CCC(C(=O)NC(c3ccccc3)c3ccccc3)N2C1=O

[81.8, 96.6]
